test: yeast display, Sf9 membrane polyspecificity reagent, FACS + sequencing; frameworks hold sequencing errors
measured.attribute: polyreactivity (PSR sort gate)

Sample records with polyreactivity (PSR sort gate):
QVQLVESGGGLVQAGGSLRLSCAASGSTFAIYAMGWYRPAPGKERELVAAITLRTDSTYYADSVKGRFTISRDNAKNTVYLQMNSLKPEDTAVYYCNTVAYMRRFDKWGMNYWGQGTQVTVSS :: low polyreactivity
QVQLEESGGGLVQAGGSLRLSCAASGSTFANYAMGWYRQAPRKERELVAGISWRGGRTYYADSVMGRFTISRDNGKNTVYLQINILKPEDTAVYYCAVVHQTFTGDYWGQGTQVTVSS :: high polyreactivity
QVQLVESGVGLVQARGSLRLSCAASGSIFKYYTRRWYRQAPGKERELVSGISYRGGSTYSADSVKGRFTISRDNAKNTVYLQMNSLKPEDTAVYYCYAFLLSGGDYWGQGSQVTVSS :: high polyreactivity
QVQLVESGGGLVQAGGSLRLSCAASGRTLVYYAMGWYRQAPGKERELVAAITSVGSTNYADSVKGRFTISRDNAKNTVYLQMNSLKPEDTAVYYCAVRRVVARYDHWGQGTQVTVSS :: low polyreactivity
QVQLVESGGGLVQAGGSLRLSCAASGSIFLPYAMVWSRQAPGTERELVAAITWGGDSTYADSVKGRFTISRDNAKNTVYLQMNSLKPEDTAVYYCAAGAGFESDYWGQGTQVTVSS :: low polyreactivity

# context switch: different sequence, same polyreactivity (PSR sort gate)
Reported polyreactivity (PSR sort gate) ( QVQLVESGGGLVQAGGTLRLSCAASGLTFKSYDMGWYRHAPGKERELVAAITSGVSTHYADSVKGRFTISRDNAKNTVYLQMNSLKPEDTAVYYCAADYSWYDPYWIMDYWGQGTQVTVSS ) = low polyreactivity

* * *

experiment: yeast display, Sf9 membrane polyspecificity reagent, FACS + sequencing; frameworks hold sequencing errors
measured.attribute: polyreactivity (PSR sort gate)

Worked set:
QVQLVESGGGLVQAGGSLRLSCAASGSTFFPNGMGWYRQAPGKERELVAAITQDGGSTYYADSVKGRFTISRDKAKNTVYLQMNSLKPEDTAVYYCAASAGPYYEYGYWGQGTQVTVSS :: low polyreactivity
QVQLVESGGGLVQAGGSLRLSCAASGSTFSWYAMGWYRQAPGKERELVASISFSGGDTSYADSVKGRFTISRDNAKNTVYLQMNSLKPEDTAVYYCGKEYKYETDTKFDYWGQGTQVTVSS :: low polyreactivity
QVQLVESGGGLVQAGGSLRLSCAASGRTFFIYAMGWYRQAPGKERELVAAITRGGTNYADSVKGRFTISRDNAKNTVYLQMNSLKPEDTAVYYCYTYTYAGYNYWGQGTQVTVSS :: high polyreactivity
QVQLVESGGGLVQAGGSLRLSCAASGSTLGVNAMGWYRQAPGKEREFVAAITGRGGNTYYADSVKGRFTISRDNAKNTVYLQMNSLKPEDTAVYYCAARVKYTRYQSILDYYYWGQGTQVTVSS :: high polyreactivity

Recorded polyreactivity (PSR sort gate) (sequence QVQLVESGGGLVQAGGSLRLSCAASGSTFWPYALGWYRQAPVKERELVAAITNSGGSTYYADSVKGRFTISRDNAKNTVYLQMNSLKPEDTAVYYCAVRGVIYSYTPVNSYVFWGQGTQVTVSS ): low polyreactivity

Recorded polyreactivity (PSR sort gate) (sequence QVQLVESGGCLVQAGGSLRLSCAASGRILEYYTMGWYRQAPGKERELVAGITSGGTTNYADSVKGRFTISRDNAKNTVYLQMNSLKPEDTAVYYCALKQSYYFGSYFYGHEYYYWGQGTQVTVSS ): low polyreactivity

Note to self: polyreactivity (PSR sort gate) recorded for QVQLVESGGGLVQAGGSLRLSCAASGRIYAYYPMGWYRQAPGKERELVAAISRGGGSTSYADSVKGRFTISRDNAKNTVYLQMNSLKPEDTAVYYCAADTRSYLVFTRYFRAYRRYDYWGQGTQVTVSS was low polyreactivity

// polyreactivity (PSR sort gate) lookup, sequence = QVQLVESGGGLVQAGGSLRLSCAASGSIFPTYVMGWYRQAPGKERELVAAISARGDSTYADSVKGRFTISRDNAKNTVYLQMNSLKPEDTAVYYCAKSAHSDYVYSRLEFGYWGQGTQVTVSS , result: low polyreactivity

Given item QVQLVESGGGLVQAGGSLRLSCAASGFIFGINAMGWYRQAPGKERELVATITSGGGTNYADSVKGRFTISRDNAKNTVYLQMNSLKPEDTAVYYCAAEEDYIYFYVSMDYWGQGTQVTVSS , the value recorded as its polyreactivity (PSR sort gate) is low polyreactivity

Looking up QVQLVESGGGLVKAGGSLSLICAASGFTFGVYAMGRYRQAPGKERELVAAIRRTGGSTYYADSVKGRFTISRDNAKNTVYLQMNSLKPEDTAVYYCAAHAISYQSRYRYRYGSVDYWGQGTQVTVSS , I found its polyreactivity (PSR sort gate) recorded as high polyreactivity

Reported polyreactivity (PSR sort gate) ( QVQLVESGVGLVQAGGSLRLSCAASGSIFWLYAMGWYRQAPGKERELVAAIDSGDSTKYADSVKGRFTISRDTAKNTVYLQMNSLKPEETAVYYSAKDYYYGLEHYGYWGQGTQVTVSS ) = low polyreactivity
